tested.system: Neurogenic locus notch homolog protein 3 (Homo sapiens)
measurement.notes: small molecules binding NOTCH3 protein – biochemical, 635/667 nm fluorescence, primary screen (AID 1096)
condition.summary: small-molecule microarray, 635 nm fluorescence, higher = more signal
Here the recorded composite z-score is given for each entry.
# answer = number (no unit)

O=C1OCC=C[C@H]2OC34C=CCN(CCN5CCOCC5)C(=O)[C@H]3N(CCCCCO)C(=O)[C@@H]4[C@@H]12 (some centres not stated); -0.255
C[C@@]1([C@@H](NC(=O)c2cccs2)c2ccc(-c3ccccc3)cc2)C[C@H]1C1CCCCC1; -1.31
C[C@H]1ON(c2ccccc2)[C@@H](c2ccccc2)[C@@H]1C(=O)N1C(=O)OC[C@@H]1c1ccccc1; 0.848
COc1ccc(C#Cc2ccc3c(c2)[C@]2(C(=O)N3)[C@H](c3ccc(OCCO)cc3)N3[C@H](c4ccccc4)[C@H](c4ccccc4)OC(=O)[C@H]3[C@@H]2C(=O)N2CCN(c3ncccn3)CC2)cc1; 0.824
COCCOC(=O)N1C(=O)[C@@]2(c3ccccc31)[C@H](c1ccc(OCCO)cc1)N1[C@H](c3ccccc3)[C@H](c3ccccc3)OC(=O)[C@H]1[C@@H]2C(=O)NC[C@H](O)c1ccccc1; 1.04

Lookup: I'd like to know its composite z-score. The compound in question is CCCCC(CC)C(O)C1C=CC2C(=O)NC(=O)C2N1Nc1ccccn1 (configuration not stated)
Found: 1.1

Lookup: So what does the record say about composite z-score for Cc1cc(C)c(C(O)C2C=CC3C(=O)N(c4ccccc4)C(=O)C3N2Nc2ccccc2)c(C)c1 (configuration not stated) ?
Found: 1.05

###

measurement.notes: probe aWnt5a binding to arrayed compounds – biochemical, biotinylated probe, 635/667 nm fluorescence, primary screen (AID 1113);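 further: score merges 667 nm fluorescence intensity with signal-to-noise per printed feature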
condition.summary: small-molecule microarray, higher = more signal
This listing pairs compounds with measured composite z-score.
When you answer, write just the number.

O=C1NC(=O)C2C1C=CC(C(O)c1ccc(-c3ccccc3)s1)N2Nc1ccccn1 (stereo not drawn); 0.0746
[N-]=[N+]=NCc1ccccc1C[C@@]1(C(=O)NCCN2CCOCC2)N=C(c2ccc(OCCCO)cc2)O[C@@H]1c1ccccc1CN=[N+]=[N-]; 0.0037
COCCCNC(=O)[C@@]1(C)c2ccccc2C(=O)N(c2ccc(C)cn2)[C@H]1c1ccc(CO)cc1; -0.172
CN(C)C(=O)[C@@]1(CCC(=O)OC(C)(C)C)N=C(c2ccc(OCCCO)cc2)O[C@H]1c1ccccc1N=[N+]=[N-]; 0.0839
CCOC(=O)C1=CCC(c2cccc(Cl)c2)O1 (stereo not drawn); -0.0492

Lookup: Query (compound): CC1C=C(CCCO)C=C(C(=O)OCCS(C)(=O)=O)C(C(=O)OCCS(C)(=O)=O)=CN1Cc1cccc(OC(F)(F)F)c1 (stereo not drawn) ; field requested: composite z-score
Found: 0.027

Lookup: Can you look up the measured composite z-score of `COc1cccc(C)c1NC(=O)O[C@H]1[C@H](OC(=O)Nc2ccccc2)[C@H](OC(=O)Nc2ccccc2)[C@@H](OC)O[C@@H]1CO` for me?
Found: 0.0775

Lookup: Item under review: CC(C)(C)N1CC=CC23O[C@@H]4C=CCCOC(=O)C4[C@H]2C(=O)N(CCCO)[C@@H]3C1=O (stereo partly drawn) . Reported composite z-score?
Found: -0.172
